B1: Hairpin Ribozyme (parent)
chain: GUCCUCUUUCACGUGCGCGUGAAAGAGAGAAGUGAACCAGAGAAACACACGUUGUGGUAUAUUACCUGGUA

Variants of: B1
ASSAY COMMENT: self-cleavage, relative activity (ratio to wild type); higher = more cleavage; co-transcriptional
self-cleavage reference

{"columns": ["MUTATION ID", "self-cleavage"],
 "data": [
  ["U20G G29C", 0.18],
  ["U58C U70C", 0.945],
  ["A24U A45C", 0.179],
  ["C65G U70G", 0.19],
  ["G19A A31G", 0.7],
  ["A43C U63A", 0.126],
  ["C38G G42A", 0.103],
  ["A31G U33A", 0.165],
  ["C46U A64C", 0.0758],
  ["U2A C6U", 0.182],
  ["C10G G17A", 0.676],
  ["G34A U52A", 1.31],
  ["C12G A49U", 0.12],
  ["U20G C50G", 0.225],
  ["G32C G56A", 0.13],
  ["C3A A43G", 0.143],
  ["C3U U5G", 0.318],
  ["C4G C46U", 0.235],
  ["A11G A43G", 0.128],
  ["A64C U70G", 0.127],
  ["U8C A28C", 0.691],
  ["U9C G21U", 0.695],
  ["C37G A64G", 0.15],
  ["G27A C50A", 0.104],
  ["G34A C48U", 0.191],
  ["U2C G32A", 0.138],
  ["G15A U60C", 0.853],
  ["G17A U62A", 0.159],
  ["C16G A59U", 0.145],
  ["G51A G57A", 0.142],
  ["U14G A61C", 0.257],
  ["A41G G57A", 0.184],
  ["A22G G57A", 0.17],
  ["G17A A59U", 0.116],
  ["A39G C65G", 0.152],
  ["A41U A49G", 1.06],
  ["A23G C37U", 0.466],
  ["U9A G68C", 0.165],
  ["C37U U62C", 0.0928],
  ["G40U A44U", 0.142],
  ["G25U A26C", 0.21],
  ["A11C A24G", 0.539],
  ["A26G C37G", 0.237],
  ["U7A A71G", 0.895],
  ["U20A A31U", 0.148],
  ["C37U G54U", 0.443],
  ["A22G G25U", 0.595],
  ["G13U G19A", 0.73],
  ["G25A G42C", 0.182],
  ["A24G A30U", 0.124],
  ["A47G U63G", 0.0332],
  ["G29U U63G", 0.103],
  ["G25A U70A", 0.519],
  ["A39U U67A", 0.73],
  ["U2A C37A", 0.161],
  ["G19A U70G", 0.917],
  ["G13A A64U", 0.258],
  ["G25A A45G", 0.24],
  ["G40A C65G", 0.0639],
  ["A23G A43G", 0.0591],
  ["C4U U33A", 0.283],
  ["C37U G57C", 0.156],
  ["C6U C18G", 0.775],
  ["A43C G54C", 0.163],
  ["C37A C65G", 0.124],
  ["U33G C48G", 0.209],
  ["C4G A31G", 0.238],
  ["C38G U67G", 0.124],
  ["U33A C48U", 0.0718],
  ["U14G A26U", 0.549],
  ["U14G A49U", 0.0246],
  ["A22C G54U", 0.514],
  ["G54A G68C", 0.208],
  ["A11C G17U", 0.745],
  ["A24G U60A", 0.861],
  ["A43U G57U", 0.152],
  ["C12U A36U", 0.584],
  ["A31C C46G", 0.0917],
  ["G13A G54C", 0.346],
  ["G1C A35C", 0.0578],
  ["A23G G25C", 0.521],
  ["G19C U52G", 0.898],
  ["G21A G42U", 0.249],
  ["A31C U60C", 0.188],
  ["G13U U52G", 0.623],
  ["C18G G34U", 1.32],
  ["C12A G57U", 0.172],
  ["C18G C50G", 0.176],
  ["G25C U70A", 0.574],
  ["C10U U62A", 0.234],
  ["U2A A61U", 0.159]
]}

Numbers sourced from the RNAGym collection of RNA variant scans (doi:10.7554/elife.80360).
